molecular target: hKv1.5 (Homo sapiens, UniProt P22460); test: Kv1.5 Autopatch Electrophysiology (whole cell patch-clamp); format: cell-based; conditions: compound at 1µM, room temperature (22-24°C), held at -80mV, step to 0mV for 1000ms, total charge measured
Sequence (P22460 whole entry): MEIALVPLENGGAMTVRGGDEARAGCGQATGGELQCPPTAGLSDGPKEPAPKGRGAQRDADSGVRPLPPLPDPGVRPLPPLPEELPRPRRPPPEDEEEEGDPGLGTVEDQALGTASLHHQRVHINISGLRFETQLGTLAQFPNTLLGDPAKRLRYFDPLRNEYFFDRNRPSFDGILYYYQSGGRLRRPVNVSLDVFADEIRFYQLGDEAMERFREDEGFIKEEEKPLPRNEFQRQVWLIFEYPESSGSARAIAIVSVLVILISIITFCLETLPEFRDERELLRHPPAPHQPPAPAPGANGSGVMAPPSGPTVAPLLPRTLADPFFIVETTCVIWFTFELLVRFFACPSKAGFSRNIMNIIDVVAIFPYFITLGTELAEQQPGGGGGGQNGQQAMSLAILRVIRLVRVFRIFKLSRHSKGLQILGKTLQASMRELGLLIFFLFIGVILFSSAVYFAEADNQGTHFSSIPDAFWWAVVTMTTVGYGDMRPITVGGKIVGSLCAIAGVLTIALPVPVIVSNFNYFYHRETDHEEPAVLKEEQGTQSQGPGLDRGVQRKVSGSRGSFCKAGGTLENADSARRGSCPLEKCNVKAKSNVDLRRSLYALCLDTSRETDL

{"columns": ["COMPOUND", "TARGET SYSTEM", "inhibition at 1 µM, %"],
 "data": [
  ["CC(C)(C)c1ccc(-c2csc3ncnc(NCc4ccco4)c23)cc1 [Example 145]", "hKv1.5 (Homo sapiens, UniProt P22460)", 68],
  ["OCCNc1nc(NCc2ccccn2)c2c(-c3ccc(F)cc3)csc2n1 [Example 212]", "hKv1.5 (Homo sapiens, UniProt P22460)", 87],
  ["CN(Cc1ccco1)c1ncnc2scc(-c3ccccc3)c12 [Example 88]", "hKv1.5 (Homo sapiens, UniProt P22460)", 26.4],
  ["CCOC(=O)CCNc1nc(NCc2ccccn2)c2c(-c3ccccc3)csc2n1 [Example 202]", "hKv1.5 (Homo sapiens, UniProt P22460)", 98],
  ["FC(F)(F)Oc1ccc(-c2csc3ncnc(NCc4ccccn4)c23)cc1 [Example 317]", "hKv1.5 (Homo sapiens, UniProt P22460)", 98]
]}

---

molecular target: hKv1.5 (Homo sapiens); test: Kv1.5 Autopatch Electrophysiology (whole cell patch-clamp); assay type: cell-based; conditions: compound at 1µM, room temperature (22-24°C), held at -80mV, step to 0mV for 1000ms, total charge measured
# cutoff 90% applies to inhibition at 1 µM; >= gives criterion met, < gives criterion not met

{"columns": ["MOLECULE", "DISCRETE LABEL"],
 "data": [
  ["c1ccc(-c2csc3ncnc(NCCc4ccccn4)c23)cc1 [Example 111]", "criterion not met"],
  ["Cc1ccc(-c2csc3ncnc(NCc4ccccn4)c23)nc1 [Example 121]", "criterion not met"],
  ["c1ccc(-c2csc3ncnc(NCc4csc(-c5cccs5)n4)c23)cc1 [Example 161]", "criterion not met"],
  ["c1ccc(CNc2ncnc3scc(-c4ccc(N5CCOCC5)cc4)c23)nc1 [Example 332]", "criterion not met"],
  ["CNc1nc(NCc2ccccn2)c2c(-c3ccccc3)csc2n1 [Example 196]", "criterion met"]
]}

---

target: UniProt P22460; assay: Kv1.5 Rb+ Efflux Assay; conditions: inhibition of 86Rb+ efflux through Kv1.5; cells stably transfected with human Kv1.5; 10 point concentration response curves n=2; normalised to 2.5mM 4 amino-pyridine block
MEASURED QUANTITY: IC50 (µM)

{"columns": ["COMPOUND", "QUAL", "VALUE REPORTED"],
 "data": [
  ["OCCN(CCO)c1nc(NCc2ccccn2)c2c(-c3ccccc3)csc2n1", "=", 0.33],
  ["CN(C)CCOc1nc(NCc2ccccn2)c2c(-c3ccccc3)csc2n1", "=", 5.37],
  ["c1csc(CNc2ncnc3scc(-c4cccs4)c23)c1 [Example 98]", "=", 6.95],
  ["c1coc(CNc2ncnc3scc(C4CCCCC4)c23)c1", "=", 2.52],
  ["COc1cc(CNc2ncnc3scc(-c4cccs4)c23)cc(OC)c1OC", ">", 30],
  ["c1coc(CNc2ncnc3scc(-c4cccs4)c23)c1", "=", 1.91],
  ["Cc1ccc(-c2csc3ncnc(NCc4ccco4)c23)cc1C", "=", 0.67],
  ["c1ccc(-c2csc3ncnc(NCC4CC4)c23)cc1", "=", 0.8],
  ["Fc1ccc(-c2csc3nc(N4CCOCC4)nc(NCc4ccccn4)c23)cc1", "=", 42.5],
  ["c1ccc(-c2csc3ncnc(NCC4CCCO4)c23)cc1 (centres unmarked)", "=", 5.18],
  ["c1csc(-c2csc3ncnc(NCC4CC4)c23)c1", "=", 4.51],
  ["c1ccc(-c2csc3ncnc(OCc4ccco4)c23)cc1", "=", 0.8],
  ["OCC(CO)Nc1nc(NCc2ccccn2)c2c(-c3ccccc3)csc2n1", "=", 0.74],
  ["c1ccc(-c2csc3ncnc(OCc4ccccn4)c23)cc1", "=", 0.33],
  ["C=CCNc1ncnc2scc(-c3cccs3)c12", "=", 7.53],
  ["COC(=O)CNc1ncnc2scc(-c3ccccc3)c12", "=", 5.03],
  ["c1csc(CNc2ncnc3scc(-c4cccs4)c23)c1 [Example 115]", "=", 7.07],
  ["OCCc1nc(NCc2ccccn2)c2c(-c3ccccc3)csc2n1", "=", 0.33],
  ["c1ccc(CNc2ncnc3scc(-c4ccc5c(c4)OCO5)c23)nc1", "=", 0.01],
  ["c1ccc(CNc2ncnc3scc(-c4ccc(N5CCOCC5)cc4)c23)nc1", "=", 47.4]
]}
